# assay.system: Perilipin-5 (Homo sapiens) + 1-acylglycerol-3-phosphate O-acyltransferase ABHD5 (Homo sapiens) (UniProt Q00G26+Q8WTS1)
# Sequence (Q00G26 whole entry, looked up, the tested form may be a part): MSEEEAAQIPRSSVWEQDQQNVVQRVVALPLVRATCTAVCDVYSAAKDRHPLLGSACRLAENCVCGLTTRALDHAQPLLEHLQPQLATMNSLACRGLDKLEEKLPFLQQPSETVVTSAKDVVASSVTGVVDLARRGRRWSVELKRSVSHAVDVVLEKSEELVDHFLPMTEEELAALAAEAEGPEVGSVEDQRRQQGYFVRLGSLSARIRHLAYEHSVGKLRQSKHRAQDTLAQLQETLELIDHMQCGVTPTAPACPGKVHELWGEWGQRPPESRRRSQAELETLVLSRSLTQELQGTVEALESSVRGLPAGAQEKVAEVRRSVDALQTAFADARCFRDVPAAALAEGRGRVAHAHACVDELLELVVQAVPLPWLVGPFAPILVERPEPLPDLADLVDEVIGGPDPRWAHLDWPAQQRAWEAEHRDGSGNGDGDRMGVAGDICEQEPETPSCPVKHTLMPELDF
# Sequence (Q8WTS1 whole entry, looked up, the tested form may be a part): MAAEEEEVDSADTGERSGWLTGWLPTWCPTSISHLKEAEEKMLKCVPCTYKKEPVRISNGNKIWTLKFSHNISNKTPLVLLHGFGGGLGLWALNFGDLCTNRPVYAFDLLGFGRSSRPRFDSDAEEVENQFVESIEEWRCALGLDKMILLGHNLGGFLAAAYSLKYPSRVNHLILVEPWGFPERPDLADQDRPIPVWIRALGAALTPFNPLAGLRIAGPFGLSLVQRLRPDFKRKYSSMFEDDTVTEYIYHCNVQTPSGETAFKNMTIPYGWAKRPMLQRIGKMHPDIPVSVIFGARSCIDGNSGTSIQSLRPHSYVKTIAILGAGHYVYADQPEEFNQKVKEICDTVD
# assay.method.text: blockers of ABHD5 binding to perilipin-5 – cell lysate, luminescence, proteins expressed in HEK293T, dose response (AID 651733);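 also: split Gaussia princeps luciferase complementation between ABHD5 and MLDP fusion proteins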
# run.parameters: ABHD5-PLIN5 interaction
Activity calls are given as the source filed them. No rule for the calls is given here.
Outcome codes: active, inactive

[[record]]
compound = "O=C1/C(=C/c2cccnc2)CC/C1=C\\c1cccnc1"
label_class = "active"

[[record]]
compound = "CN(C)CCOC1(Cc2ccc(F)cc2)CCC(C(C)(C)C)CC1 (stereo not given)"
label_class = "active"

[[record]]
compound = "Cc1ccc(NC(=O)CSc2nnc(-c3ccco3)c(-c3ccco3)n2)cc1"
label_class = "active"

[[record]]
compound = "COc1ccccc1/C=C/C(=O)c1ccccc1"
label_class = "active"

[[record]]
compound = "CC1=CC(C)(C)Nc2ccc(OC(=O)CN3C(=O)C4CCCCC4C3=O)cc21 (stereo not given)"
label_class = "active"

[[record]]
compound = "CC1CCN(S(=O)(=O)c2ccc(NC(=O)Cc3cccs3)cc2)CC1"
label_class = "active"

[[record]]
compound = "CCCCCNC(=O)C(c1cc2ccccc2o1)n1c(=O)c(-c2ccco2)nc2ccccc21 (stereo not given)"
label_class = "active"

[[record]]
compound = "O=C(Nc1ccc2c(c1)OCCO2)C(c1ccccc1F)n1c(=O)c(-c2ccco2)nc2ccccc21 (stereo not given)"
label_class = "inactive"

[[record]]
compound = "CN(C)CCCN(C(=O)CCc1ccccc1)c1nc2ccc(Br)cc2s1"
label_class = "inactive"

[[record]]
compound = "N#Cc1ccc(C(C(=O)NCc2ccccc2)n2c(=O)c(-c3ccco3)nc3ccccc32)cc1 (stereo not given)"
label_class = "active"

[[record]]
compound = "Cc1cc(C)c(NC(=O)CN2CCN3CCCC3C2)c(C)c1 (stereo not given)"
label_class = "active"

[[record]]
compound = "CCN(CC)CCNC(=O)c1ccc(NC(=O)c2cn(-c3ccccc3)nc2-c2cccs2)cc1"
label_class = "inactive"

[[record]]
compound = "CC(=O)Cc1cc(O)c2ccccc2c1OC(=O)c1ccccc1"
label_class = "active"

[[record]]
compound = "Cc1cc(C)c(NC(=O)C[N+](C)(C)CC(O)COc2cccc3ccccc23)c(C)c1 (stereo not given)"
label_class = "active"

[[record]]
compound = "CC(C)(C)NC(=O)C(c1ccccc1F)n1c(=O)c(-c2ccco2)nc2ccccc21 (stereo not given)"
label_class = "active"

[[record]]
compound = "COc1ccc(C(C(=O)Nc2ccc3c(c2)OCCO3)n2c(=O)c(-c3ccco3)nc3ccccc32)cc1 (stereo not given)"
label_class = "active"

[[record]]
compound = "Cc1cc(C)c(C(CC(=O)c2cccs2)C(C#N)C#N)c(C)c1 (stereo not given)"
label_class = "active"

[[record]]
compound = "CCCCCNC(=O)C(c1ccc(C#N)cc1)n1c(=O)c(-c2ccco2)nc2ccccc21 (stereo not given)"
label_class = "active"

[[record]]
compound = "CN(C)CCOc1ccc(-c2c(-c3ccccc3)sc3ccccc23)cc1"
label_class = "inactive"

[[record]]
compound = "CCOC(=O)/C(=C\\c1ccc(Cl)cc1)c1nc2sc(C)c(C)c2c(=O)[nH]1"
label_class = "active"

[[record]]
compound = "CC1=CC2C(C(O)CC3(C)C2CC(C)C32OCOC23COCO3)C2(C)C/C(=C\\O)C(=O)C=C12 (stereo not given)"
label_class = "active"

[[record]]
compound = "CCCCCNC(=O)C(c1cccc2ccccc12)n1c(=O)c(-c2ccco2)nc2ccccc21 (stereo not given)"
label_class = "active"

[[record]]
compound = "Cc1ccc2nc3cc([N+](=O)[O-])cc([N+](=O)[O-])c3cc2c1"
label_class = "active"

[[record]]
compound = "O=C(NC1CCCCC1)C(c1ccccc1F)n1c(=O)c(-c2ccco2)nc2ccccc21 (stereo not given)"
label_class = "active"

[[record]]
compound = "CCCCCNC(=O)C(c1ccc(C(F)(F)F)cc1)n1c(=O)c(-c2ccco2)nc2ccccc21 (stereo not given)"
label_class = "active"

[[record]]
compound = "NC(=O)CCN1CCN(CCOC2Cc3cc(Cl)ccc3Sc3ccccc32)CC1 (stereo not given)"
label_class = "inactive"

[[record]]
compound = "C=C[C@]1(C)C[C@@H](OC(=O)CSCCN(CC)CC)[C@]2(C)C(C)CC[C@]3(CCC(=O)[C@H]32)[C@@H](C)[C@@H]1O (stereo not given in full)"
label_class = "active"

[[record]]
compound = "CN1CCC[C@@H]1CCO[C@](C)(c1ccccc1)c1ccc(Cl)cc1"
label_class = "active"

[[record]]
compound = "CCCC(=O)NC(c1cccc([N+](=O)[O-])c1)c1ccc2cccnc2c1O (stereo not given)"
label_class = "inactive"

[[record]]
compound = "COc1ccc(NC(=O)C(c2ccc(C#N)cc2)n2c(=O)c(-c3ccco3)nc3ccccc32)cc1 (stereo not given)"
label_class = "inactive"

[[record]]
compound = "CCOC1=CC2=C(C(=O)C(Cl)=CC2=O)[C@@H]2CN(S(=O)(=O)c3ccc(C)cc3)[C@@H](c3ccccc3)[C@H]12"
label_class = "active"

[[record]]
compound = "COc1cc(C)c2sc3ccccc3c(=O)c2c1NCCN(C)C"
label_class = "active"

[[record]]
compound = "COc1ccccc1-c1cc(C(=O)NC2CCN(C)CC2)c2ccc(Cl)c(C)c2n1"
label_class = "inactive"

[[record]]
compound = "Cc1ccc(C(=O)c2c(C)oc3c2C(=O)C(=O)c2ccccc2-3)cc1"
label_class = "active"

[[record]]
compound = "O=C(/C=C/c1ccc(NC(=O)c2ccccc2-c2ccccc2C(=O)O)cc1)c1ccccc1"
label_class = "active"

[[record]]
compound = "CCN(CC)CCN(CC(=O)Nc1c(C)cc(C)cc1C)C(=O)c1ccccc1"
label_class = "active"

[[record]]
compound = "O=C(NC1CCCCC1)C(c1cccc2ccccc12)n1c(=O)c(-c2ccco2)nc2ccccc21 (stereo not given)"
label_class = "active"

[[record]]
compound = "CC(C)(C)NC(=O)C(c1ccncc1)n1c(=O)c(-c2ccco2)nc2ccccc21 (stereo not given)"
label_class = "active"

[[record]]
compound = "O=C(CF)N(O)c1ccc(C=Cc2ccccc2)cc1"
label_class = "inactive"

[[record]]
compound = "CCCCOC(=O)Nc1cc(C(=O)OC)ccc1C(=O)OC"
label_class = "active"

